Published pIC50 for UniProt:P09874, assembled from different documents, is shown next.
pIC50: −log10 of the molar value.

### Prompt Bench note: what pIC50 did `O=c1[nH]nc(Cc2ccc(F)c(P3(=O)CCN(C4CC4)CC3)c2)c2ccc(F)cc12` show?
### Response > 7.00

### Prompt Field entry: `O=C(c1cc(Cn2c(=O)[nH]c(=O)c3ccccc32)ccc1F)N1CCC(OC(F)F)CC1`
### Response 8.00 to 10.00

### Prompt Field entry: CC(C)(COCc1ccccc1)C1Cc2[nH]c(=O)c3ccccc3c2CO1 (racemic)
### Response 6.90

### Prompt Field entry: `COC(=O)Nc1nc2cc(-c3n[nH]c(=O)c4ccccc34)ccc2[nH]1`
### Response < 5.00

### Prompt Field entry: `CNC(=O)c1ccc(C2=CCN([C@H]3C=C(c4nc5c(c(=O)[nH]4)CC4(CC5)CC4)CC3)CC2)cc1`
### Response 6.30 to 9.00

### Prompt Field entry: `NC(=O)c1cccc2cn(-c3ccc([C@@]4(F)CCCNC4)cc3F)nc12`
### Response 6.30 to 7.00

### Prompt Field entry: `N#Cc1ccc(N2CCN([C@H]3C=C(c4[nH]c(=O)c5cccnc5c4[N+](=O)[O-])CC3)CC2)cc1`
### Response 8.30 to 9.30

### Prompt Field entry: `O=c1[nH]c(C2=C[C@H](N3CCN(c4ccc(F)cc4)CC3)CC2)cc2cccn12`
### Response 8.30 to 9.30

### Prompt Field entry: `C[C@@]1(c2ccc(-n3cc4cc(F)cc(C(N)=O)c4n3)cc2)CCCNC1`
### Response 6.30 to 7.00

### Prompt Field entry: `O=c1[nH]c(C2=C[C@H](N3CCN(c4c(F)cccc4F)CC3)CC2)nc2c1CC1(CC2)CC1`
### Response 5.30 to 6.30

### Prompt Field entry: `O=c1[nH]c(C2=C[C@H](N3CCN(c4ccc(F)cn4)CC3)CC2)nc2c1CC1(CC2)CC1`
### Response 6.30 to 9.00

### Prompt Field entry: `O=c1[nH]nc(Cc2ccc(F)c(P3(=O)CCN(c4ncc(F)cc4F)CC3)c2)c2ccccc12`
### Response > 7.00

### Prompt Field entry: Cc1nc2ccc(CN3CCN(c4ccc(C(=O)NC5CC5)nc4)[C@H]4C[C@H]43)c(F)c2[nH]c1=O (single isomer, unassigned)
### Response 7.85

### Prompt Field entry: `CCc1cc2ncc(CN3C[C@H](Oc4ccc(C#N)cn4)[C@H]3C)cc2[nH]c1=O`
### Response 7.89

### Prompt Field entry: O=c1[nH]nc2c3c(cc(F)cc13)NC(COCc1ccccc1)C2c1ccc(F)cc1F (stereo not shown)
### Response 7.89

### Prompt Field entry: CC1(C(=O)N2CCC(C3Cc4[nH]c(=O)c5cccnc5c4CO3)CC2)CC1 (racemic)
### Response 7.41
